Catalogue of DC50 values
- TARGET UNDER TEST: HiBiT tagged PARP14 (Homo sapiens)
- Construct: engineered to contain a HiBiT tag on both alleles of the PARP14 gene; endogenous in cells; host or cells: Jurkat cells stably transfected with LgBiT (Promega), PARP14 locus edited by CRISPR/Cas9
- Sequence (Q460N5 whole entry): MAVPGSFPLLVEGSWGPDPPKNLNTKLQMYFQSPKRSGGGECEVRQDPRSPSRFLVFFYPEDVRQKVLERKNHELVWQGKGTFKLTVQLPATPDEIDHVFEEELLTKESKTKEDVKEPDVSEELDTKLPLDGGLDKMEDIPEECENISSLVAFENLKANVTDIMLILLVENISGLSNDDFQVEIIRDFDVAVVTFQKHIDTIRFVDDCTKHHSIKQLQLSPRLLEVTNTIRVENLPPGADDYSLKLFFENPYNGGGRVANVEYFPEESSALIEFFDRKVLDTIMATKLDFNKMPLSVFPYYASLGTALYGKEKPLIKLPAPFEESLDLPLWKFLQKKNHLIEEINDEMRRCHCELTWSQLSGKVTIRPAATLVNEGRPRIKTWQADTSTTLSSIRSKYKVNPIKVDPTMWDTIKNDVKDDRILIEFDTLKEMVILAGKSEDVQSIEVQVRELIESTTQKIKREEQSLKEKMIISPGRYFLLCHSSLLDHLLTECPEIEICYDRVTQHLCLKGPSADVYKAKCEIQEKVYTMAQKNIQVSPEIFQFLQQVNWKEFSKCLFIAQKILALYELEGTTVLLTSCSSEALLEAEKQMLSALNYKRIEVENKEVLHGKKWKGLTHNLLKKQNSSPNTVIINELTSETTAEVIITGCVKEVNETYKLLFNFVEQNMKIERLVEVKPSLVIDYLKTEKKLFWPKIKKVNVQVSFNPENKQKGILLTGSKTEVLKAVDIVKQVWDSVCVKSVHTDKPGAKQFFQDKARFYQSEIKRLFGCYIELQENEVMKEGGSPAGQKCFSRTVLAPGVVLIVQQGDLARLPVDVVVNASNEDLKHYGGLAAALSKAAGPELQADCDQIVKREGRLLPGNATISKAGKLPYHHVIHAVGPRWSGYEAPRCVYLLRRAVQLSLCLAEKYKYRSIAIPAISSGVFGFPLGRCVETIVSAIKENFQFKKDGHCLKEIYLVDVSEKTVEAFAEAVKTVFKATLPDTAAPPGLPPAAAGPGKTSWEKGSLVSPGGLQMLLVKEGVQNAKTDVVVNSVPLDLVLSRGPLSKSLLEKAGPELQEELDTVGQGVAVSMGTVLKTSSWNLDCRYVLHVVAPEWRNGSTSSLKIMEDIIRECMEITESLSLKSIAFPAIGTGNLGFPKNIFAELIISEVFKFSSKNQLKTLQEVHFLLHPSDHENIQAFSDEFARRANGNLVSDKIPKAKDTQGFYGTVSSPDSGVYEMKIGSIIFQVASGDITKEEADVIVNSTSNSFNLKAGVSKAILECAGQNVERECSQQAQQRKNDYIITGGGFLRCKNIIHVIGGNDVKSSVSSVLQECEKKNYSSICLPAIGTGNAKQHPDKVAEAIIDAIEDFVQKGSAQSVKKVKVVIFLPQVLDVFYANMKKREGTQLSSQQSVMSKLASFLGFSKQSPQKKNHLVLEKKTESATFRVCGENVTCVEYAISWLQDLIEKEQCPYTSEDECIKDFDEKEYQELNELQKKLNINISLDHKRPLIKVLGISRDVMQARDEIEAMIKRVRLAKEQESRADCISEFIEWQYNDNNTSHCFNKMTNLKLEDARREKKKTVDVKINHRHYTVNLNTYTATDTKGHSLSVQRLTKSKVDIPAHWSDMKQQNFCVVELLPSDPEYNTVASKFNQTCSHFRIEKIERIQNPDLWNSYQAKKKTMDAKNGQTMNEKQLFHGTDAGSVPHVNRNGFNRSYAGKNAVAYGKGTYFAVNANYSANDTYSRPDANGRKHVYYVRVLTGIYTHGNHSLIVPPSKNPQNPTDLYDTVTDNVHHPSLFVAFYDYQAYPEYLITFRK
- TEST METHOD NOTES: HiBiT assay for the degradation of PARP14 (HiBiT tagged PARP14 in LgBiT expressing Jurkat cells, 2 or 24 hours)
- Type: cell-based
- RUN CONDITIONS: Assay B (Example B): HiBiT tagged PARP14 degradation in LgBiT expressing Jurkat cells, read-out: DC50

Worked examples, 5 compounds total:
Cn1nc(N2CCC(=O)NC2=O)c2cccc(C3CCN(CCN4CCC(COc5cc(F)c6c(=O)[nH]c(COC7CCOCC7)nc6c5)CC4)CC3)c21 | < 30 nM
Cn1nc(N2CCC(=O)NC2=O)c2ccc(N3CCC(N4CCC(COc5cc(F)c6c(=O)[nH]c(CSC7CCOCC7)nc6c5)CC4)CC3)cc21 | < 30 nM
O=C1CCN(c2ccc(C3CCN(CCN4CCC(COc5cc(F)c6c(=O)[nH]c(CSC7CCOCC7)nc6c5)CC4)CC3)c(F)c2)C(=O)N1 | < 30 nM
O=C1CCC(Nc2ccc(N3CCC(C(=O)N4CCC(N5CCC(COc6cc(F)c7c(=O)[nH]c(COC8CCOCC8)nc7c6)CC5)CC4)CC3)c(F)c2)C(=O)N1 (stereo not drawn) | < 30 nM
O=C1CCC(Nc2ccc(N3CCN(C4CCN(CCOc5cc(F)c6c(=O)[nH]c(CSC7CCOCC7)nc6c5)CC4)CC3)c(F)c2)C(=O)N1 (stereo not drawn) | < 30 nM

Please find the next compound below.
Problem: So what does the record say about DC50 for O=C1CCC(Nc2ccc(N3CC4(CCC(N5CCC(COc6cc(F)c7c(=O)[nH]c(CSC8CCOCC8)nc7c6)CC5)CC4)C3)cc2)C(=O)N1 (stereo not drawn) ?
Solution: < 30 nM
